Reference for the values: patent US20260209362A1

Target: T1, biotinylated recombinant human IL-12Rβ2 (human, UniProt Q99665 24-622, random biotinylated)
T1 construct: Recombinant protein produced in-house; also called hIL-12RB2; human IL-12RB2
T1 sequence: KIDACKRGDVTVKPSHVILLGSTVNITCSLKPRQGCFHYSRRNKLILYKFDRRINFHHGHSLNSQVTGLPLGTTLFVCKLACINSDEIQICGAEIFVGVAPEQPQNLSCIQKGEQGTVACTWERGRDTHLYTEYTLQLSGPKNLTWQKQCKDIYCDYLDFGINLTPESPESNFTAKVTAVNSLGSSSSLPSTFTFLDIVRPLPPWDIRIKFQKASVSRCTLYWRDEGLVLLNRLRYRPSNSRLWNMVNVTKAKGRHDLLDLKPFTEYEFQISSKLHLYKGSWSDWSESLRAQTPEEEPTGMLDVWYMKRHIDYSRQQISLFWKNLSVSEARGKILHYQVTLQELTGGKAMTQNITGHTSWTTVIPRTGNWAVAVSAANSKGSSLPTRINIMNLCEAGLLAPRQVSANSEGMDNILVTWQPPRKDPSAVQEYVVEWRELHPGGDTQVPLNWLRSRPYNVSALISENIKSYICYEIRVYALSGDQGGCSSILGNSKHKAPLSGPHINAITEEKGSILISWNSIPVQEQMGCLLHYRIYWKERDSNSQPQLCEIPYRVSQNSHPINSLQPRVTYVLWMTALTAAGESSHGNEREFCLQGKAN
Assay: ELISA, P.E., biotinylated antigen

BINDER	ELISA hIL-12RB2/control
anti-IL-12Rβ2 VHH clone 3CRHS166 (clone ID 20439) (VHH, not shown: small tags and cut ends, periplasmic extract) VHH: QVQLQESGGGLVQSGGSLRLSCVSSQTLVGIEAMGWYRQAPGKQRELVALITLNGGTFYADSVKGRFTISRDVAEHMLYLEMNSLNPEDTAVYFCVAGVESDNEEPTYWGQGTQVTVSS	23.2
anti-IL-12Rβ2 VHH clone 3CAH60 (clone ID 20361) (VHH, not shown: small tags and cut ends, periplasmic extract) VHH: QVQLQESGGGLVQPGGSLILSCVASGFAMDYLTMGWSREAPRNEREDISCIDTSGRSTDYLDSVKGRFTISRDNAKNTLYLHMNDLKPEDTAEYYCLASTSYCGAGYEYRGQGTQVTVSS	3.91
anti-IL-12Rβ2 VHH clone 3CRH59 (clone ID 20385) (VHH, not shown: small tags and cut ends, periplasmic extract) VHH: QVQLQESGGGLVQPGGSLRLSCTASGFAFSSYWMYWVRQTPGKGFEWVSVVNPGGEITYYGDSMEDRFTISRDNAKNTLYLQMNSLKPEDTGLYYCARDRTTIDYTRTYYRGGQGTQVTVSS	15.9
anti-IL-12Rβ2 VHH clone 3CAHM11 (clone ID 21050) (VHH, not shown: small tags and cut ends, periplasmic extract) VHH: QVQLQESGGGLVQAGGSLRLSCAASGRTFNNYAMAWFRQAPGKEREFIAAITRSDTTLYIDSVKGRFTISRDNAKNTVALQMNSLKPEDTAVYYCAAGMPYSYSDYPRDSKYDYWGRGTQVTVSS	3.04
anti-IL-12Rβ2 VHH clone 3CRHS148 (clone ID 20436) (VHH, not shown: small tags and cut ends, periplasmic extract) VHH: QVQLQESGGGLVQPGGSLRLSCIASGSIFSIYNMDWYRQAPGNQREWVASITPSGDPYYDDSAKGRFTISRDNAKMTVYLQMNSLKPEDTAVYYCKVPTEKGNYWGQGTQVTVSS	3.36
anti-IL-12Rβ2 VHH clone 3CRHS9 (clone ID 20415) (VHH, not shown: small tags and cut ends, periplasmic extract) VHH: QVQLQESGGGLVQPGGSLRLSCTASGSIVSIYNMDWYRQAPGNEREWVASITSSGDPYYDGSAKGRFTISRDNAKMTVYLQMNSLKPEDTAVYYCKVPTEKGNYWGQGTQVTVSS	5.08
anti-IL-12Rβ2 VHH clone 3CAHS79 (clone ID 20398) (VHH, not shown: small tags and cut ends, periplasmic extract) VHH: QVQLQESGGGLVQPGGSLRLTCVASGFPFSTHAMSWVRQPPGKGREWISAINSGGDSTDYADSVMGRFTISRDNAKNTVYLQMNSLKSEDTAVYYCAKYEDCSDYDCSSRASWGQGTQVTVSS	3.71
